Hello, the source for this data is ChEMBL document CHEMBL2417468, in case you need it.

assay: Growth inhibition of human DWD cells after 48 hrs by sulforhodamine B assay; assay type: functional
assay-metric: GI50 (nM)
Answers are plain numbers, in nM.

>  <compound>
COc1cc([C@@H]2c3cc4c(cc3[C@@H](NC(=O)c3ccc(NC(=O)Nc5cc(C)cc(C)c5)cc3)[C@H]3COC(=O)[C@H]23)OCO4)cc(OC)c1OC

>  <GI50, nM>
1600

$$$$
>  <compound>
COc1cc([C@@H]2c3cc4c(cc3[C@@H](NC(=O)c3ccc(NC(=O)NCCCl)cc3)[C@H]3COC(=O)[C@H]23)OCO4)cc(OC)c1OC

>  <GI50, nM>
1600

$$$$
>  <compound>
COc1ccc(NC(=O)Nc2ccc(C(=O)N[C@@H]3c4cc5c(cc4[C@@H](c4cc(OC)c(OC)c(OC)c4)[C@H]4C(=O)OC[C@@H]43)OCO5)cc2)cc1

>  <GI50, nM>
1700

$$$$
>  <compound>
COc1cc([C@@H]2c3cc4c(cc3[C@@H](O[C@@H]3O[C@@H]5CO[C@@H](C)O[C@H]5[C@H](O)[C@H]3O)[C@H]3COC(=O)[C@H]23)OCO4)cc(OC)c1O [ETOPOSIDE]

>  <GI50, nM>
620

$$$$

For the next question, use this compound.
Query: Return reported GI50; argument: COc1cccc2c1C(=O)c1c(O)c3c(c(O)c1C2=O)C[C@@](O)(C(=O)CO)C[C@@H]3O[C@H]1C[C@H](N)[C@H](O)[C@H](C)O1
Result: 100
